- Tested on: ACHN renal
- EXPERIMENT_NOTES: NCI tumour cell line growth inhibition, 48 h; in the data active means GI50 below about 0.43 µM; inactive means the rest
Select the matching outcome among active, inactive

Take a look at these entries with their results.
> print(dat)
                                   compound      target  class.label
1  C[N+]1=C(/C=C/c2ccc(O)c3ncccc23)C(C)(C)c2ccccc21  ACHN renal     inactive
2   CCCn1c(=S)sc2c1nc(C)n1c(Nc3ccccc3)nnc21  ACHN renal     inactive
3   O=C1Nc2ccccc2C1(c1ccc(O)cc1)c1ccc(O)cc1  ACHN renal     inactive

Kindly review the next compound as well.
Data request: What outcome does the record of this test show for "O=C(CCc1nnc2sc(-c3ccc(Cl)cc3Cl)nn12)c1nc2ccccc2[nH]1" ?
Data returned: active

---

- Test system: HCT-116 colon
- EXPERIMENT_NOTES: NCI tumour cell line growth inhibition, 48 h
Recorded TGI by entry
A number alone suffices; assume µM.

> print(dat)
                                   compound         target  test.result
1  COc1cc2cc(Oc3ccc(NC(=O)Nc4ccc(Cl)c(C(F)(F)F)c4)cc3)c(C)nc2cc1OCCN1CCOCC1  HCT-116 colon         10.8

Let us move to another entry and its TGI.
Data request: Record request: TGI value, item "CCOCC(=O)N[C@H]1CCc2cc(OC)c(OC)c(OC)c2-c2ccc(OC)c(=O)cc21"
Data returned: 10.7

---

Recorded TGI by entry
- Test system: COLO 205 colon
- EXPERIMENT_NOTES: NCI tumour cell line growth inhibition, 48 h
A number alone suffices; assume µM.

> print(dat)
                                 compound  measured.parameter  test.result
1  O=S(=O)(O)C1=C2Sc3ccccc3N=C2c2ccccc2C1                 TGI         30.3

Data request: Record request: TGI value, item "CN1CCN(c2ccc3[nH]c(-c4cc(O)c5c(nc(CO)n5C)c4O)nc3n2)CC1"
Data returned: 43.3

Data request: Record request: TGI value, item "COc1cc2cc(Oc3ccc(NC(=O)Nc4ccc(Cl)c(C(F)(F)F)c4)cc3)c(C)nc2cc1OCCN1CCOCC1"
Data returned: 3.78

Data request: Record request: TGI value, item Cc1ccc([N+](=O)[O-])cc1S(=O)(=O)Nc1ccc(C2=NN(c3ccc([N+](=O)[O-])cc3[N+](=O)[O-])C(c3cccs3)C2)cc1 (stereo not given)
Data returned: 54.5

Data request: Record request: TGI value, item CCC(C)(C)C1CCC2c3c([nH]c4ccccc34)C3C(=O)N(c4ccc(OC)cc4)C(=O)C3C2C1 (stereo not given)
Data returned: 24.7

Data request: Record request: TGI value, item "COc1ccc2c(c1)CCCN2c1c2ccccc2nc2ccccc12"
Data returned: 0.849

---

Recorded GI50 by entry
- Test system: IGROV1 ovarian
- EXPERIMENT_NOTES: NCI tumour cell line growth inhibition, 48 h

Worked examples, 2 compounds total:
> print(dat)
                                   compound          target  measured.parameter  test.result
1  CCCCCCCC[C@@H](O)CC(=O)N[C@@H](CC(N)=O)C(=O)N[C@@H](CCC(N)=O)C(=O)N[C@@H](CC(=O)c1cc(C)cc(O)c1C(=O)c1c(O)cccc1O)CC(C)C  IGROV1 ovarian                GI50       261 nM
2  CCC[CH2][Sn]1([CH2]CCC)[O]C(=O)CN=Cc2c(ccc3ccccc23)[O]1  IGROV1 ovarian                GI50      2480 nM

Data request: Record request: GI50 value, item CCCC(=O)OCC1OC(n2cnc3c(=S)nc[nH]c32)C(OC(=O)CCC)C1OC(=O)CCC (centres undefined)
Data returned: 10300 nM

Data request: Record request: GI50 value, item "O=C(CCc1nnc2sc(-c3ccc(Cl)cc3Cl)nn12)c1nc2ccccc2[nH]1"
Data returned: 953 nM

---

Recorded TGI by entry
- Test system: OVCAR-8 ovarian
- EXPERIMENT_NOTES: NCI tumour cell line growth inhibition, 48 h
A number alone suffices; assume µM.

Data request: Record request: TGI value, item "N#C/C(=C\c1ccc2ccccc2c1)c1ccccc1"
Data returned: 96.7

Data request: Record request: TGI value, item Cc1ccc(C(=O)N(CCCN)C(c2oc3cc(Cl)ccc3c(=O)c2Cc2ccccc2)C(C)C)cc1 (configuration not stated)
Data returned: 1.79

Data request: Record request: TGI value, item "CCCCCCCC[C@@H](O)CC(=O)N[C@@H](CC(N)=O)C(=O)N[C@@H](CCC(N)=O)C(=O)N[C@@H](CC(=O)c1cc(C)cc(O)c1C(=O)c1c(O)cccc1O)CC(C)C"
Data returned: 46.6

Data request: Record request: TGI value, item CCOC1Oc2ccc(C)cc2C(=O)/C1=C\Nc1ccc(C(N)=O)cc1 (configuration not stated)
Data returned: 40.3

---

- Tested on: M14 melanoma
- EXPERIMENT_NOTES: NCI tumour cell line growth inhibition, 48 h
MEASURED_PARAMETER: TGI

Worked examples, 4 compounds total:
> print(dat)
                                   compound        target  test.result
1  Nc1nccc(-c2c(-c3ccc(F)cc3)ncn2C2CCC(O)CC2)n1 (stereo not given)  M14 melanoma      > 25 µM
2      CC(CCC(=O)O)(c1ccc(O)cc1)c1ccc(O)cc1  M14 melanoma     > 100 µM
3  Nc1c(-c2ccc(Cl)cc2)[n+]([O-])c2ccccc2[n+]1[O-]  M14 melanoma     > 100 µM
4  O=C1CN(C(=O)C2CCCN2C(=O)C2CCCN2)C(=O)CN1 (stereo not given)  M14 melanoma     > 100 µM

Data request: Record request: TGI value, item "COc1cc(C(=O)CBr)c(OC)cc1C"
Data returned: > 100 µM

Data request: Record request: TGI value, item COc1cc(/C=C2/SC(c3ccccc3)N(c3ccccc3Cl)C2=O)cc(OC)c1OC (stereo not given)
Data returned: > 100 µM

---

- Test system: CAKI-1 renal
- EXPERIMENT_NOTES: NCI tumour cell line growth inhibition, 48 h
Recorded TGI by entry

Worked examples, 5 compounds total:
> print(dat)
                                   compound  measured.parameter  test.result
1  COC(=O)Nc1nc2ccc(Oc3ccc(NC(=O)Nc4cc(C(F)(F)F)ccc4F)cc3)cc2s1                 TGI      > 25 µM
2     O=C(O)CCSC(=O)Nc1ccc([N+](=O)[O-])cc1                 TGI     > 100 µM
3      O=C(O)CCCn1nnc2c(=O)[nH][nH]c(=O)c21                 TGI     > 100 µM
4  COc1ccc(-c2nc(-c3nc4ccc(Cl)cc4[nH]3)c3ccccn23)cc1                 TGI      5.03 µM
5        C/C(O)=C(\N=O)C(=O)Nc1ccc(Cl)cc1Cl                 TGI     > 100 µM

Data request: Record request: TGI value, item "c1ccc(-c2cn3c(nc4ccccc43)c(-c3ccccc3)n2)cc1"
Data returned: > 100 µM

Data request: Record request: TGI value, item "COc1nc(N=P(c2ccccc2)(c2ccccc2)c2ccccc2)cc(=O)[nH]1"
Data returned: > 100 µM

Data request: Record request: TGI value, item "c1ccc2c(c1)CC1=C(O2)c2ccccc2OC1"
Data returned: 49.5 µM

Data request: Record request: TGI value, item O=C(CC1(O)C(=O)Nc2ccccc21)c1ccncc1 (stereo unspecified)
Data returned: > 100 µM

Data request: Record request: TGI value, item "N#C/C(=C\c1ccc2ccccc2c1)c1ccccc1"
Data returned: 50 µM

Data request: Record request: TGI value, item "CCC/C=C/c1cc2c(cc1O)CC[C@@H]1[C@@H]2CC[C@]2(C)[C@@H](O)CC[C@@H]12"
Data returned: 41.8 µM

---

- Tested on: UACC-257 melanoma
- EXPERIMENT_NOTES: NCI tumour cell line growth inhibition, 48 h
MEASURED_PARAMETER: TGI

Worked examples, 10 compounds total:
> print(dat)
                                    compound  test.result
 1                  CCCCC(=O)c1ccc2ccccc2c1O     > 100 µM
 2     O=C(NC12CC3CC(CC(F)(C3)C1)C2)c1ccccc1     > 100 µM
 3  O=C(O)C1CCCN(CCc2c[nH]c3ccccc23)C1 (stereo unspecified)     > 100 µM
 4  Nc1c(-c2ccc(Cl)cc2)[n+]([O-])c2ccccc2[n+]1[O-]     > 100 µM
 5  CC(=O)c1sc2c(c1OC(=O)c1ccco1)c(=O)n(-c1ccccc1)c(=S)n2-c1ccccc1      88.7 µM
 6  Cc1cc(C)c2c(O)c(S(=O)(=O)c3ccc(Cl)cc3)c(=O)oc2c1     > 100 µM
 7  COC(=O)CC(c1cn(S(=O)(=O)c2ccc(C)cc2)c2ccccc12)C1C[C@@H](C(=O)OC)N(C(=O)OC(C)(C)C)C1=O (stereo partly specified)     > 100 µM
 8                O=P1(O)c2ccccc2CCc2ccccc21     > 100 µM
 9  O=c1cc(-c2ccccc2)oc2cc(OC/C(=N/O)c3ccccc3)ccc12      > 50 µM
10     COc1ccc(C[C@@H](CO)NC2=C(C#N)CCC2)cc1     > 100 µM

Data request: Record request: TGI value, item "COc1ccc2c(c1)CCCN2c1c2ccccc2nc2ccccc12"
Data returned: > 100 µM

The reported numbers originate from PubChem BioAssay (NCI).
